study target: GST-SAP (Homo sapiens)
protocol description: SPR
endpoint name: pKd
Lab note — pKd values are minus log10 of concentrations in M.

Can you share its pKd? I mean this sequence: TTTTTTTTTTTTTTTTTTTTTTTTTTTTTTTTTTTTTTTT [40T]
5.96
